test system: UO-31 renal; experiment: NCI-60 one-dose screen, 48 h; conditions: 10 µM unless noted
About 83,000 compounds went through this panel and 20% of them were active in at least one assay; those are over-represented in the sample as a whole. Active and inactive are the calls of the source. How the source made its calls: active means growth percent below 10; inactive means the rest.
Could you please pick one outcome from this set? active, inactive

-- ask # fetch the recorded call for C=C1C(=O)O[C@H]2[C@H]1CC/C(CNC(=O)c1cccc3ccccc13)=C\CC[C@@]1(C)O[C@@H]21 here
-- reply inactive

-- ask # fetch the recorded call for O=C(/C=C/c1ccc(F)cc1)c1ccc(NC(=O)N2CCN(c3cc4c(cc3F)c(=O)c(C(=O)O)cn4C3CC3)CC2)cc1 here
-- reply inactive

-- ask # fetch the recorded call for O=C1/C=C/[C@@H](O)[C@@H]2C[C@@H](O)C[C@H]2/C=C/CCC[C@H](CCc2ccc3ncccc3c2)O1 here
-- reply active

-- ask # fetch the recorded call for CCOC(=O)CCN(CC(C)C)C(=S)Nc1ccccc1 here
-- reply inactive

The values you see were collected from PubChem BioAssay (NCI).
